Tested on: Johnsongrass
Experiment: post-emergent herbicidal activity test; also: ranges in brackets are in %
Type: in vivo
Details: *11.2 Kg/Ha; observed approximately 14 days after treatment
Catalogue of Post-Emergent herbicidal rating, I Johnsongrass values
readout.label: Post-Emergent herbicidal rating, I Johnsongrass

| compound | assay.value |
| --- | --- |
| CCCCCCOC(=O)c1cn(C)nc1-c1cccc(C(F)(F)F)c1 [Example 21] | 1 (25-49) |
| C=C(Cl)COC(=O)c1cn(C)nc1-c1cccc(C(F)(F)F)c1 [Example 19] | 1 (25-49) |
| Cn1cc(C(=O)OCC2CC(F)(F)C2(F)F)c(-c2cccc(C(F)(F)F)c2)n1 (stereo not drawn) [Example 18] | 1 (25-49) |

---

Tested on: Johnsongrass
Test: post-emergent herbicidal activity test; also: ranges in brackets are in %
Type: in vivo
Conditions: *11.2 Kg/Ha; observed approximately 14 days after treatment
Catalogue of Post-Emergent herbicidal rating, I Johnsongrass values
readout.label: Post-Emergent herbicidal rating, I Johnsongrass

| compound.smiles | assay.value |
| --- | --- |
| CCOC(=O)c1cn(C)nc1-c1cccc(C(F)(F)F)c1 | 0 (0-24) |
| CCOC(=O)c1cn(C)nc1-c1cc(C(F)(F)F)cc(C(F)(F)F)c1 | 0 (0-24) |
| Cn1cc(C(=O)OCCOc2ccccc2)c(-c2cccc(C(F)(F)F)c2)n1 | 0 (0-24) |
| CCSCCOC(=O)c1cn(C)nc1-c1cccc(C(F)(F)F)c1 | 0 (0-24) |
| CCOC(=O)c1cn(CC)nc1-c1cccc(C(F)(F)F)c1 | 1 (25-49) |

---

Tested on: Barnyard grass
Test: post-emergent herbicidal activity test; also: ranges in brackets are in %
Type: in vivo
Conditions: 11.2 Kg/Ha; approximately four weeks later
readout.label: Post-Emergent herbicidal rating, K Barnyard grass

| compound | assay.value |
| --- | --- |
| CCOC(=O)c1cn(CC)nc1-c1cccc(C(F)(F)F)c1 [Example 1] | 0 (0-24) |
| CCCCOC(=O)c1cn(C)nc1-c1cccc(C(F)(F)F)c1 [Example 30] | 1 (25-49) |
| CCOC(=O)c1cn(C)nc1-c1cc(C(F)(F)F)cc(C(F)(F)F)c1 [Example 10] | 1 (25-49) |
| CCOC(=O)c1cn(C)nc1-c1ccc(OC)cc1 [Example 31] | 1 (25-49) |
| CCOC(=O)c1cn(C)nc1-c1ccc(C(F)(F)F)cc1 [Example 17] | 0 (0-24) |
| CCOC(=O)c1cn(C)nc1-c1cccc(C(F)(F)F)c1 [Example 12] | 0 (0-24) |
| CCC(C)OC(=O)c1cn(C)nc1-c1cccc(C(F)(F)F)c1 (stereo not shown) [Example 20] | 0 (0-24) |

---

Tested on: Morningglory
Assay: pre-emergent herbicidal activity test; also: ranges in brackets are in %
Format: in vivo
Conditions: 11.2 Kg/Ha; approximately 28 days after seeding and treating
Catalogue of Pre-Emergent herbicidal rating, D Morningglory values
readout.label: Pre-Emergent herbicidal rating, D Morningglory

| compound | system.name | assay.value |
| --- | --- | --- |
| CCOC(=O)c1cn(CC)nc1-c1cccc(C(F)(F)F)c1 [Example 1] | Morningglory | 0 (0-24) |
| CCC(C)OC(=O)c1cn(C)nc1-c1cccc(C(F)(F)F)c1 (stereo not drawn) [Example 20] | Morningglory | 0 (0-24) |
| CCOC(=O)c1cn(C)nc1-c1ccc(C(F)(F)F)cc1 [Example 17] | Morningglory | 0 (0-24) |
| CCOC(=O)c1cn(C)nc1-c1cccc(C(F)(F)F)c1 [Example 12] | Morningglory | 3 (75-100) |
| CCCCOC(=O)c1cn(C)nc1-c1cccc(C(F)(F)F)c1 [Example 30] | Morningglory | 0 (0-24) |
| CCOC(=O)c1cn(C)nc1-c1cc(C(F)(F)F)cc(C(F)(F)F)c1 [Example 10] | Morningglory | 0 (0-24) |

---

Test system: Morningglory
Assay: post-emergent herbicidal activity test; also: ranges in brackets are in %
Format: in vivo
Details: 11.2 Kg/Ha; approximately four weeks later
Description: The post-emergent tests were conducted as follows. The active ingredients are applied in spray form to two or three-week old specimens of various plant species. The spray, a solution or wettable powder suspension containing the appropriate rate of active ingredient to give the desired test rate and a surfactant, is applied to the plants. The treated plants are placed in a greenhouse and unless otherwise noted approximately four weeks later the effects are observed and recorded.
readout.label: Post-Emergent herbicidal rating, D Morningglory

| compound | system.name | assay.value |
| --- | --- | --- |
| CCOC(=O)c1cn(C)nc1-c1cc(C(F)(F)F)cc(C(F)(F)F)c1 | Morningglory | 2 (50-74) |
| CCOC(=O)c1cn(C)nc1-c1ccc(C(F)(F)F)cc1 | Morningglory | 0 (0-24) |
| CCCCOC(=O)c1cn(C)nc1-c1cccc(C(F)(F)F)c1 | Morningglory | 1 (25-49) |
| CCC(C)OC(=O)c1cn(C)nc1-c1cccc(C(F)(F)F)c1 (stereo not shown) | Morningglory | 0 (0-24) |
| CCOC(=O)c1cn(C)nc1-c1cccc(C(F)(F)F)c1 | Morningglory | 2 (50-74) |
| CCOC(=O)c1cn(C)nc1-c1ccc(OC)cc1 | Morningglory | 1 (25-49) |
| CCOC(=O)c1cn(CC)nc1-c1cccc(C(F)(F)F)c1 | Morningglory | 1 (25-49) |

---

Tested on: Canada Thistle
Assay: post-emergent herbicidal activity test; also: ranges in brackets are in %
Format: in vivo
Settings: *11.2 Kg/Ha; observed approximately 14 days after treatment
readout.label: Post-Emergent herbicidal rating, A Canada Thistle

| molecule | assay.value |
| --- | --- |
| C=C(Cl)COC(=O)c1cn(C)nc1-c1cccc(C(F)(F)F)c1 | 1 (25-49) |
| Cn1cc(C(=O)OCC2CC(F)(F)C2(F)F)c(-c2cccc(C(F)(F)F)c2)n1 (stereo not drawn) | 1 (25-49) |
| CCSCCOC(=O)c1cn(C)nc1-c1cccc(C(F)(F)F)c1 | 1 (25-49) |

---

System: Barnyard grass
Assay: pre-emergent herbicidal activity test; also: ranges in brackets are in %
Assay type: in vivo
Settings: 11.2 Kg/Ha; approximately 28 days after seeding and treating
Catalogue of Pre-Emergent herbicidal rating, K Barnyard grass values
readout.label: Pre-Emergent herbicidal rating, K Barnyard grass

| compound | assay.value |
| --- | --- |
| CCOC(=O)c1cn(C)nc1-c1ccc(C(F)(F)F)cc1 | 2 (50-74) |
| CCOC(=O)c1cn(CC)nc1-c1cccc(C(F)(F)F)c1 | 3 (75-100) |
| CCOC(=O)c1cn(C)nc1-c1cc(C(F)(F)F)cc(C(F)(F)F)c1 | 2 (50-74) |
| CCOC(=O)c1cn(C)nc1-c1cccc(C(F)(F)F)c1 | 3 (75-100) |
| CCC(C)OC(=O)c1cn(C)nc1-c1cccc(C(F)(F)F)c1 (stereo not drawn) | 3 (75-100) |
| CCCCOC(=O)c1cn(C)nc1-c1cccc(C(F)(F)F)c1 | 3 (75-100) |

---

System: Smartweed
Assay: post-emergent herbicidal activity test; also: ranges in brackets are in %
Format: in vivo
Conditions: 11.2 Kg/Ha; approximately four weeks later
Catalogue of Post-Emergent herbicidal rating, F Smartweed values
readout.label: Post-Emergent herbicidal rating, F Smartweed

| compound | assay.value |
| --- | --- |
| CCOC(=O)c1cn(C)nc1-c1ccc(OC)cc1 [Example 31] | 4 (100) |
| CCOC(=O)c1cn(C)nc1-c1cccc(C(F)(F)F)c1 [Example 12] | 1 (25-49) |
| CCOC(=O)c1cn(C)nc1-c1ccc(C(F)(F)F)cc1 [Example 17] | 0 (0-24) |
| CCOC(=O)c1cn(C)nc1-c1cc(C(F)(F)F)cc(C(F)(F)F)c1 [Example 10] | 0 (0-24) |
| CCCCOC(=O)c1cn(C)nc1-c1cccc(C(F)(F)F)c1 [Example 30] | 0 (0-24) |
| CCOC(=O)c1cn(CC)nc1-c1cccc(C(F)(F)F)c1 [Example 1] | 0 (0-24) |
| CCC(C)OC(=O)c1cn(C)nc1-c1cccc(C(F)(F)F)c1 (stereo not shown) [Example 20] | 0 (0-24) |

---

Tested on: Lambsquarter
Test: pre-emergent herbicidal activity test; also: ranges in brackets are in %
Format: in vivo
Conditions: *11.2 Kg/Ha; observed approximately 14 days after treatment
Catalogue of Pre-Emergent herbicidal rating, E Lambsquarter values
readout.label: Pre-Emergent herbicidal rating, E Lambsquarter

| molecule | system.name | assay.value |
| --- | --- | --- |
| CCSCCOC(=O)c1cn(C)nc1-c1cccc(C(F)(F)F)c1 | Lambsquarter | 3 (75-100) |
| CCCCCCOC(=O)c1cn(C)nc1-c1cccc(C(F)(F)F)c1 | Lambsquarter | 0 (0-24) |
| CCOC(=O)c1cn(C)nc1-c1cc(C(F)(F)F)cc(C(F)(F)F)c1 | Lambsquarter | 3 (75-100) |
| CCOC(=O)c1cn(CC)nc1-c1cccc(C(F)(F)F)c1 | Lambsquarter | 3 (75-100) |
| Cn1cc(C(=O)OCC2CC(F)(F)C2(F)F)c(-c2cccc(C(F)(F)F)c2)n1 (stereo not drawn) | Lambsquarter | 2 (50-74) |
| Cn1cc(C(=O)OCCOc2ccccc2)c(-c2cccc(C(F)(F)F)c2)n1 | Lambsquarter | 3 (75-100) |
| CCOC(=O)c1cn(C)nc1-c1cccc(C(F)(F)F)c1 | Lambsquarter | 3 (75-100) |
| C=C(Cl)COC(=O)c1cn(C)nc1-c1cccc(C(F)(F)F)c1 | Lambsquarter | 3 (75-100) |
| CCOC(=O)c1cn(C)nc1-c1ccc(OC)cc1 | Lambsquarter | 0 (0-24) |
